# System: AncSZ
# RUN_DESCRIPTION: phosphorylation enrichment, bacterial display (enrichment ratio); higher = better substrate or ligand; peptides without Tyr show the background;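 further: 11-residue human phosphosite peptides and single-mutation variants displayed on the E. coli surface, counted by deep sequencing, each peptide's frequency after selection divided by its frequency in the unselected input library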;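 further: frequency after pTyr selection over input frequency; kinase dosed for 20-30% of maximal phosphorylation in three min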
PARAMETER_MEASURED: phosphorylation enrichment

[[record]]
seq = "PVQAAYQQVVA [HBB_Y131_K133Q]"
target_of_assay = "AncSZ"
parameter_measured = "phosphorylation enrichment"
test_value = 0.554

[[record]]
seq = "FRSSLYLLMET [MYO5C_Y633]"
target_of_assay = "AncSZ"
parameter_measured = "phosphorylation enrichment"
test_value = 1.24

[[record]]
seq = "SETDDYAEIIV [PTK2_Y397_D402V]"
target_of_assay = "AncSZ"
parameter_measured = "phosphorylation enrichment"
test_value = 1.4

[[record]]
seq = "AFDNLYYWDQD [ERBB2_Y1221]"
target_of_assay = "AncSZ"
parameter_measured = "phosphorylation enrichment"
test_value = 2.31

[[record]]
seq = "LHRAHYDLRHT [AHSG_Y314]"
target_of_assay = "AncSZ"
parameter_measured = "phosphorylation enrichment"
test_value = 0.621

[[record]]
seq = "NHYKICNLCAE [PTEN_Y68_Y68C]"
target_of_assay = "AncSZ"
parameter_measured = "phosphorylation enrichment"
test_value = 0.663

[[record]]
seq = "FAELVYTSFWH [ASS1_Y322_G324S]"
target_of_assay = "AncSZ"
parameter_measured = "phosphorylation enrichment"
test_value = 2.31

[[record]]
seq = "CATIHYNYMCN [TP53_Y234_T230A]"
target_of_assay = "AncSZ"
parameter_measured = "phosphorylation enrichment"
test_value = 0.78

[[record]]
seq = "EGTGHYLCNAC [GATA5_Y208_D203E]"
target_of_assay = "AncSZ"
parameter_measured = "phosphorylation enrichment"
test_value = 0.524

[[record]]
seq = "PKGWNYELPAT [PROM1_Y34_A31G]"
target_of_assay = "AncSZ"
parameter_measured = "phosphorylation enrichment"
test_value = 1


What does the data say about its phosphorylation enrichment? Entry: NQLNDYIFSFD [RARS1_Y516_R512Q]
1.42

Request: KRISCYEARYQ [PFKFB3_Y194_S197R]
0.708

Request: LVMFIYAIFWM [SCN1A_Y1684_G1688W]
1.07

Request: DYYDLYGGEKF [PTPN11_Y66]
2.92

Request: FSNVLYRPRGP [TMIGD2_Y197_A202P_YF]
0.549

Request: KDLPNYNWNSF [KISS1_Y112]
0.904

Request: KHCEDYVFSYN [DSC1_Y846_C848F]
2.06

Request: TFGNLYGSRKQ [YIPF7_Y59_A54T_YF]
0.629

Request: DRTVHYVDEKG [IFT140_Y216_G212R]
0.666

Request: RAADYYSQQMA [GBP6_Y334]
0.537

Request: RILENYGADID [DNAH5_Y596_L591R]
1.17

Request: DEDYLCREELA [POR_Y575_Y575C]
1.68

Request: ASTDFYKRGDF [PDHA1_Y243_YF]
0.719

Request: PSSNLYYRCLT [CNGA3_Y168_W171C]
1.68

Request: QFLMMYVWSAS [ABCD1_Y337_K336M]
1.53

* * *

# TARGET_OF_ASSAY: Fyn (UniProt P06241)
# Sequence (P06241 whole entry, looked up): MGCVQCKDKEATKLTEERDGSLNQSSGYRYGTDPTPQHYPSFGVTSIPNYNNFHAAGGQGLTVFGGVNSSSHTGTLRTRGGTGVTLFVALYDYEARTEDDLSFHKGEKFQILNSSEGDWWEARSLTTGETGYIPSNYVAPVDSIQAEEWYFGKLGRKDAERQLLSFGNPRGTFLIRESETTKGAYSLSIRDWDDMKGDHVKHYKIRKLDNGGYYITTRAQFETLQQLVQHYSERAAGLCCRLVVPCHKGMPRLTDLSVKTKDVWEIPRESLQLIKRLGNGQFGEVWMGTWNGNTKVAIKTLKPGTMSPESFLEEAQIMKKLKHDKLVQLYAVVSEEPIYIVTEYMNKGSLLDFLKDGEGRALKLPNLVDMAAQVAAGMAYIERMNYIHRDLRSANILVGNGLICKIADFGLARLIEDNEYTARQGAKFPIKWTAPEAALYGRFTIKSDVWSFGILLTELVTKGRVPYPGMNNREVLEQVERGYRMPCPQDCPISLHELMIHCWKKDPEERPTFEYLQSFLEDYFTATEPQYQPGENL
# RUN_DESCRIPTION: phosphorylation enrichment, bacterial display (enrichment ratio); higher = better substrate or ligand; peptides without Tyr show the background
PARAMETER_MEASURED: phosphorylation enrichment
Answer as a number with no unit attached.

A selection of reference data follows.
[[record]]
seq = "RLKAKYAAATG [GLI3_Y933]"
parameter_measured = "phosphorylation enrichment"
test_value = 0.379

[[record]]
seq = "KNKKDYFDMFE [SLC26A3_Y526_YF]"
parameter_measured = "phosphorylation enrichment"
test_value = 0.453

[[record]]
seq = "EELLRYAIVTP [POC5_Y37_H36R]"
parameter_measured = "phosphorylation enrichment"
test_value = 0.456


What does the data say about its phosphorylation enrichment? Entry: THLARYSDELR [APOA1_Y190_P189R]
0.539

Request: EKIANYKEGTF [CLRN1_Y171_YF]
0.465

Request: LTVVIYVLIGR [EPHA3_Y561]
0.567

Request: YSNKLYYQLEQ [PDPR_Y109]
2.08

Request: QGLMPYGQPRP [SRRT_Y798]
0.488

Request: HEEKVYLSRGD [CRACR2A_Y141]
0.995

Request: EDGRLYAVKRS [PKMYT1_Y136]
0.486

Request: QQTYTYDSGIH [JUP_Y22]
1.65

Request: DLLNSYIENEG [HSPA4L_Y600]
0.53

Request: AFDNLYYWDQD [ERBB2_Y1221]
6.31

Request: IAINKYEVSLI [MYO7A_Y2136_G2137E]
0.514

* * *

In this section, each of the sequences is paired with its reported phosphorylation enrichment.
# System: AncSZ
# RUN_DESCRIPTION: phosphorylation enrichment, bacterial display (enrichment ratio); higher = better substrate or ligand; peptides without Tyr show the background
Answer as a number with no unit attached.

A selection of reference data follows.
[[record]]
seq = "RIRRRYCQVLN [IQCF1_Y144]"
parameter_measured = "phosphorylation enrichment"
test_value = 0.673

[[record]]
seq = "TVDASYYGGRG [ANTXR2_Y380]"
parameter_measured = "phosphorylation enrichment"
test_value = 0.512

[[record]]
seq = "EPSLVYMVTKI [CPS1_Y768_D767V]"
parameter_measured = "phosphorylation enrichment"
test_value = 1.16


What does the data say about its phosphorylation enrichment? Entry: SSSAIYDNPNL [DCP1B_Y191]
0.898

Request: LLASRYDSPIN [ABLIM1_Y638]
1.32

Request: ADLVQYFMEHH [PTPN11_Y80_E76D_YF]
1.1

Request: ESMLRYEVYGG [STOX1_Y607]
1.29

Request: HPFHVYSQPGM [BAG3_Y114_P115S]
1.78

Request: FMRGMYFRMTD [PLA2G6_Y541_K545T_YF]
1.09

Request: QGLMPYGQPRP [SRRT_Y798]
0.853

Request: LIGTPYWMAPE [PAK5_Y608_V604I]
1.74

* * *

# TARGET_OF_ASSAY: MERTK (UniProt Q12866)
# Sequence (Q12866 whole entry, looked up): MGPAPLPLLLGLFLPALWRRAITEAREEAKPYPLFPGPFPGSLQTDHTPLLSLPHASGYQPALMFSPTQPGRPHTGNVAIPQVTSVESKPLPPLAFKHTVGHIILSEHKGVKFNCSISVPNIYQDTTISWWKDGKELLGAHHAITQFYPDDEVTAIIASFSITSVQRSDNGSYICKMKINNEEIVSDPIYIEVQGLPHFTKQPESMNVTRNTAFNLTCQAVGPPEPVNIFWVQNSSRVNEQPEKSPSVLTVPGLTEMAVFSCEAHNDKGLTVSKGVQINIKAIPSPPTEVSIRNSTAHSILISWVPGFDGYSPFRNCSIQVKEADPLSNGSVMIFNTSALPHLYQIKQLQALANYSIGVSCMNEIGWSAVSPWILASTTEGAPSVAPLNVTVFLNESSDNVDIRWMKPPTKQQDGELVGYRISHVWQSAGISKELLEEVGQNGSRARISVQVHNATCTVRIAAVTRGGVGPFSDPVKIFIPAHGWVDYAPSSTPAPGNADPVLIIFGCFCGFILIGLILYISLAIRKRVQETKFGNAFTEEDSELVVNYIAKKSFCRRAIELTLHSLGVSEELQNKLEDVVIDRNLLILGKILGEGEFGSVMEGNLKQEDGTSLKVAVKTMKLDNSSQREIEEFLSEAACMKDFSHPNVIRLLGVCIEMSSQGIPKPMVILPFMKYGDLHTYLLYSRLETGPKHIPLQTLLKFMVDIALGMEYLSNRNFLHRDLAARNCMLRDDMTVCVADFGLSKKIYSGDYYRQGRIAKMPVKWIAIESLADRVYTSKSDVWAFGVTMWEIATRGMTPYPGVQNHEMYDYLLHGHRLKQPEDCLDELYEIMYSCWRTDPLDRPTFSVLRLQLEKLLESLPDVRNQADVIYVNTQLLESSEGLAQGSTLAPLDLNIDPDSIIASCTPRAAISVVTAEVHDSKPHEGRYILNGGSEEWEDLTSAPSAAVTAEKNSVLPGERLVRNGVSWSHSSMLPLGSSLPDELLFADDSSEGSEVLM
# RUN_DESCRIPTION: phosphorylation enrichment, bacterial display (enrichment ratio); higher = better substrate or ligand; peptides without Tyr show the background
PARAMETER_MEASURED: phosphorylation enrichment
Answer as a number with no unit attached.

A selection of reference data follows.
[[record]]
seq = "LKVDVYRRSHK [FUT3_Y222_G223R]"
parameter_measured = "phosphorylation enrichment"
test_value = 0.546

[[record]]
seq = "ICANKYMVESC [RPL10_Y75_K78E]"
parameter_measured = "phosphorylation enrichment"
test_value = 0.432

[[record]]
seq = "GHEFIYVDPMQ [PDGFRA_Y574_YF]"
parameter_measured = "phosphorylation enrichment"
test_value = 2.36

[[record]]
seq = "MSPPGYKLVNG [GJA1_Y286_T290N]"
parameter_measured = "phosphorylation enrichment"
test_value = 0.412

[[record]]
seq = "QAEEWYFGKMG [YES1_Y159]"
parameter_measured = "phosphorylation enrichment"
test_value = 0.439


What does the data say about its phosphorylation enrichment? Entry: KQRKEYMHRWQ [IQGAP2_Y710_R714W]
0.519

Request: SSVKPYRVFCD [FGB_Y266_YF]
0.392

Request: QGLMPYGQPRP [SRRT_Y798]
0.596

Request: LIDGYYRLTAD [JAK2_Y373]
0.961

Request: DGSALYTGSAL [COL6A3_Y524]
0.404

Request: PEADKYHLTYA [FGG_Y300_R301H]
0.742

Request: EFFDGYWEFSV [ITGA2B_Y265_G267E_YF]
0.631

Request: GRSTFYWPRPR [GAGE12J_Y10_YF]
0.538

Request: ILGRYYETSSI [PAX2_Y73_G76S]
0.594

* * *

In this section, each of the sequences is paired with its reported phosphorylation enrichment.
# Tested on: c-Abl (mouse)
# RUN_DESCRIPTION: phosphorylation enrichment, bacterial display (enrichment ratio); higher = better substrate or ligand; peptides without Tyr show the background
Answer as a number with no unit attached.

A selection of reference data follows.
[[record]]
seq = "RLKAKYAAATG [GLI3_Y933]"
target_of_assay = "c-Abl (mouse)"
test_value = 0.601

[[record]]
seq = "QFFQGYFNNNF [ZNF236_Y644_S643G]"
target_of_assay = "c-Abl (mouse)"
test_value = 1.23

[[record]]
seq = "EWLRGYLENGK [HLA-C_Y195_R194G]"
target_of_assay = "c-Abl (mouse)"
test_value = 0.97

[[record]]
seq = "FIPFRYPKEFQ [IDS_Y234_H229Y_YF]"
target_of_assay = "c-Abl (mouse)"
test_value = 0.595

[[record]]
seq = "LFFFSYLLKNH [PTEN_Y180_V175L_YF]"
target_of_assay = "c-Abl (mouse)"
test_value = 1.66

[[record]]
seq = "LNFNEYFRDLN [HPRT1_Y198_D194N_YF]"
target_of_assay = "c-Abl (mouse)"
test_value = 2.15

[[record]]
seq = "SWSTSYSGYRC [NKAPL_Y91_Y96C]"
target_of_assay = "c-Abl (mouse)"
test_value = 0.751

[[record]]
seq = "FRSSLYLLMET [MYO5C_Y633]"
target_of_assay = "c-Abl (mouse)"
test_value = 0.896


What does the data say about its phosphorylation enrichment? Entry: KPLMPYMRFSR [SMARCE1_Y73_YF]
0.99

Request: LLVVLNKYRCY [PSEN1_Y154_Y154N]
0.96

Request: SGPRRYTIAAL [TTR_Y125]
0.637

Request: VIKDKYPKAHY [APTX_Y209_R213H]
0.561

Request: VECQVYAEDPF [PCCA_Y401_R399Q_YF]
0.748

Request: SKEPYYVRCIK [MYO1D_Y586]
0.705

Request: GVRLFYRVMES [RB1_Y454_YF]
0.83

Request: RRVLVYGGRGA [QDPR_Y16]
0.575

Request: ISKTWYSAEQF [CD207_Y217_P213S]
0.585

Request: RLCQDYDTIGP [ANK1_Y1073]
0.964

Request: CSTIHYNFMCN [TP53_Y234_T230S_YF]
0.461

Request: SAPPSYEETVA [LITAF_Y23]
0.727

Request: NPQKSCFIRLF [WAS_Y83_Y83C_YF]
0.848

Request: LFLASYCIGGG [UBD_Y161_C160S]
0.886

Request: KAWTIYRPEDS [ZBP1_Y165]
0.757

Request: DSRRDYVSQFE [APOA1_Y53_G50R]
0.567

Request: TVETKYDNISR [SETDB2_Y477]
0.643

Request: PEIIAYQPYGK [PRKCG_Y529]
1.15

Request: YSGIYYKPESL [L2HGDH_Y103_H98Y]
29.5

Request: DFLEKYFKFGS [NNMT_Y24_YF]
0.936

Request: GKFHMYVAVWT [F13A1_Y161_R159H]
1.45
